Test system: MS2 coat protein
Experiment: apparent KD of MS2 coat protein; higher = weaker reporter binding
Conditions: Eterna round: R107; input ligand: tryptophan 2.4 mM
Parameter apparent KD of MS2 coat protein: see the listing below.
Number in nM, nothing else.

Recorded apparent KD of MS2 coat protein, per entry:
CGUCGAAACUGAAGGAGCGAGAUGACAACAUUGGGUCUAACAUGAGGAUCACCCAUGUAAUCUCAGGUAGGUCGCGGUGACAACA [Exclusion Arginine B GF 17]; 51.7
AACAUGAGGAUCACCCAUGUAAAAUGGGAUACCAGAGACGAAAGUCUCCCUUGGCAGCCCACUGCCUCCUUUACGAAAGUAGAGG [Theophylline A 15]; 38.3
ACAUGAGGAUCACCCAUGUAUUCAUCAGAAGGAGCGUGGAAUAACACAGGUAGGUCGCUGAUUAUUUGUUAAAUAAAAUCGUGUA [JR_Nu_SSArginiA_Sub022]; 18.3
AUCCACAGCCGAAGGAGCGCUAUAGGAUGACAUGAGGAUCACCCAUGUGUGUGAUGUGGAUAGCAGGUAGGUCGCGGAGUGGAUU [Exclusion - Arginine B (Freestyle 10)]; 26.3
AACAUGAGGAUCACCCAUGUAUUGGGUGAUACCAGCCUGAAUAAUGGCCCUUGGCAGCACCACGCUAACUUUAUGUCUGCGAACC [Maus]; 83.6
GAUAUAUAACGAAGGAGCGGCCCUUGAUCCUCAUGAGACAUGAGGAUCACCCAUGUCUCGGGCCAGGUAGGUCGCGUUAUAUAUC [Astros-omei-mod]; 24.4
ACUAGGCUCGGAAACGAGCCUAGGACAGAAGGAGCGUGGAUUAACACAGGUAGGUCGCUGACAUGAGGAUCACCCAUGUAUUAUU [SSAA #2]; 28.9
AAUCGGAGAUGAAGGAGCGCGUACAUGAGGAUCACCCAUGUAUCAAAGCUUCUCCCGUGUAUGCAGGUAGGUCGCAUUUCCACGU [Ceriedan]; 9.9

# input sequence: AGCUCGCGAAAGCGAGCAACAUGAUCCGAAGGAGCGGGCGAAAGCCCAGGUAGGUCGCGGACAUGAGGAUCACCCAUGUCUCCUU [MAT - Exclusion Arginine A - Mod of Eli - D13] ; wanted: its apparent KD of MS2 coat protein
77
